system-name: indoleamine 2,3-dioxygenase (IDO) (Homo sapiens, UniProt P14902)
Sequence (P14902 whole entry): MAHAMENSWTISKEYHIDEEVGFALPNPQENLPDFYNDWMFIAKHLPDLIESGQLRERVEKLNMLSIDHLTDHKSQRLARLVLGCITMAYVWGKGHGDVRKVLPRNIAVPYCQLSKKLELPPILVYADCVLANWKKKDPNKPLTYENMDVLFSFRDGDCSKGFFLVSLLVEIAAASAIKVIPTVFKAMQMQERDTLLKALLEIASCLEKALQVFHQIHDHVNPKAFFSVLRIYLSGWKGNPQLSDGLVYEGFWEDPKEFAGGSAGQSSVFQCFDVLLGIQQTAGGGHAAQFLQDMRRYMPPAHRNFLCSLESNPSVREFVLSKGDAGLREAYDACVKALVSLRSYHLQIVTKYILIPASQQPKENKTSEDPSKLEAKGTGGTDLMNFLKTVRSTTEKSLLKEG
assay-procedure: HeLa cell-based indoleamine 2,3-dioxygenase (IDO) assay (IFNγ-induced kynurenine production)
condition-details: Tables 3-7; compounds shown only as drawings; read-out: Potency (IDO IC50)
pIC50: −log10 of the molar value.
Listed here are compounds together with their documented pIC50.

Here are 5 compounds together with their reported answers.
# compound, pIC50
measured = [
    ("O=C(c1cccc(Cl)c1)N1CCC(Cc2ccccc2)CC1", "> 5.70"),
    ("O=C(Nc1ccc(Cl)cc1)C1CCC(Oc2ccccc2)CC1 (centres unmarked)", "> 6.60"),
    ("N#Cc1ccc(C(=O)NC[C@H]2CC[C@@H](c3ccccc3)CC2)cc1", "> 6.60"),
    ("COc1ccc([C@H]2CC[C@H](NC(=O)Cc3ccc(Cl)cc3)CC2)cc1", "> 6.60"),
    ("O=C(Nc1ccc(Cl)cc1)O[C@H]1CC[C@@H](c2ccccc2)C1", "> 5.70"),
]

For `COc1ccc(NC(=O)[C@H]2CC[C@@H](Cc3ccccc3)CC2)cc1` the compound record lists pIC50 as > 5.70

Short answer for `O=C(Cc1ccc(Cl)cc1)N[C@H]1CC[C@H](c2ccnc3ccccc32)CC1` : pIC50 was > 6.60

====

Let's look at some compounds and their measured IC50.
system-name: indoleamine 2,3-dioxygenase (IDO) (Homo sapiens, UniProt P14902)
assay-procedure: HeLa cell-based indoleamine 2,3-dioxygenase (IDO) assay (IFNγ-induced kynurenine production)
condition-details: Tables 3-7; compounds shown only as drawings; read-out: Potency (IDO IC50)
Description: Assessment of inhibitor activity in HeLa cell-based indoleamine 2,3-dioxygenase (IDO) assay. […] IDO activity was assessed as a function of kynurenine production as follows: HeLa cells were seeded in a 96-well culture plate at a density of 5,000 cells/well and allowed to equilibrate overnight. […] The percentage activity at each inhibitor concentration was determined and IC50 values assessed using nonlinear regression. […]

Study these solved cases before continuing.
# compound, system-name, IC50
data = [
    ("O=C(Nc1cccc(Cl)c1)N[C@H]1CC[C@H](c2ccccc2)CC1", "indoleamine 2,3-dioxygenase (IDO) (Homo sapiens, UniProt P14902)", "< 50 nM"),
    ("N#Cc1cccc(C(=O)NC[C@H]2CC[C@@H](c3ccccc3)CC2)c1", "indoleamine 2,3-dioxygenase (IDO) (Homo sapiens, UniProt P14902)", "< 50 nM"),
    ("O=S(=O)(CC1CCC(c2ccnc3ccccc23)CC1)Nc1ccc(Cl)cc1 (centres unmarked)", "indoleamine 2,3-dioxygenase (IDO) (Homo sapiens, UniProt P14902)", "< 50 nM"),
]

The reported IC50 of the compound `O=C(Cc1ccc(Cl)cc1)N[C@H]1CC[C@@H](c2ccccc2)CC1` was < 2000 nM

Short answer for `N#Cc1ccc(NC(=O)[C@H]2CC[C@@H](Cc3ccccc3)CC2)cc1` : IC50 was < 2000 nM

Lookup result for `COc1ccc([C@H]2CC[C@@H](CCNc3ccc(Cl)cc3)CC2)cc1` ; measured IC50: < 250 nM

For reference, reported IC50 for CC(C(=O)N[C@H]1CC[C@H](c2ccccc2)CC1)c1ccc(C#N)cc1 (some centres unmarked) stands at < 50 nM

The reported value for `COc1ccc(NC(=O)[C@H]2CC[C@H](Cc3ccccc3)CC2)cc1` in terms of IC50 is < 2000 nM

Lookup result for `O=C(Nc1ccc(Cl)cc1)N[C@H]1CC[C@H](c2ccccc2)CC1` ; measured IC50: < 50 nM

Summary for this compound, `O=C(NC[C@H]1CC[C@@H](c2ccccc2)CC1)c1ccc(Cl)cc1` : IC50 is < 250 nM

====

system-name: human IDO1 (Homo sapiens, UniProt P14902)
assay-procedure: IDO inhibition assay in HEK293 cells stably expressing human IDO1 (kynurenine, Ehrlich reagent)
condition-details: 20 hours incubation, read-out: HEK Human IDO-1 Bio Activity
Method: They were cultured in medium (DMEM with 10% FBS) containing 1 mg/ml G418 for two weeks. […] The compound treatments were stopped by adding trichloroacetic acid (Sigma-Aldrich) to a final concentration at 0.2%. […] The absorbance at 490 nm was measured on Envision plate reader.
pIC50: −log10 of the molar value.
quantity-kind: pIC50

Known pIC50 results, listed for orientation:
# molecule, result
data = [
    ("Cc1c(C2CCC(C(C)NC(=O)c3ccc(Cl)cc3)CC2)ccnc1F (single isomer, unassigned) [Example 158d]", "> 7.30"),
    ("Cc1cnccc1C1CCC(C(C)NC(=O)c2ccc(Cl)cc2)CC1 (single isomer, unassigned) [Example 160b]", "> 5.70"),
    ("Cc1nccc(C2CCC(C(C)NC(=O)c3ccc(Cl)cc3)CC2)c1C (single isomer, unassigned) [Example 159c]", "> 7.30"),
]

Lab note: next molecule to report on.
For this molecule ( CC(NC(=O)c1ccc(Cl)cc1)C1CCC(c2ccncc2F)CC1 (single isomer, unassigned) [Example 161a] ), measured pIC50 is > 5.70

====

Listed here are compounds together with their documented pIC50.
system-name: human IDO1 (Homo sapiens)
assay-procedure: IDO inhibition assay in HEK293 cells stably expressing human IDO1 (kynurenine, Ehrlich reagent)
condition-details: 20 hours incubation, read-out: HEK Human IDO-1 Bio Activity
pIC50: −log10 of the molar value.

// recorded pIC50 for CC[C@@H](NC(=O)c1ccc(-c2ccccc2)cc1)[C@H]1CC[C@H](c2cnc3ccccc3c2)CC1 [Example 201] : > 6.60

====

system-name: indoleamine 2,3-dioxygenase (IDO) (Homo sapiens)
assay-procedure: HeLa cell-based indoleamine 2,3-dioxygenase (IDO) assay (IFNγ-induced kynurenine production)
condition-details: Tables 3-7; compounds shown only as drawings; read-out: Potency (IDO IC50)
This listing pairs molecules with measured IC50.

Study these solved cases before continuing.
# molecule, IC50
data = [
    ("COc1ccc([C@H]2CC[C@@H](CC(=O)NCc3ccccc3)CC2)cc1", "< 250 nM"),
    ("O=S(=O)(NC[C@H]1CC[C@@H](c2ccccc2)CC1)c1ccc(Cl)cc1", "< 250 nM"),
    ("O=C(NC[C@H]1CC[C@@H](c2ccccc2)CC1)c1cccc(Cl)c1", "< 50 nM"),
]

// COc1ccc(C2CCC(CC(=O)NCc3ccccc3)CC2)cc1 (stereo not shown) : IC50 value = < 2000 nM

Recorded IC50 (molecule `O=C(Nc1ccc(F)cc1)N[C@H]1CC[C@H](c2ccccc2)CC1` ): < 50 nM

Per the record, `N#Cc1ccc(CC(=O)N[C@H]2CC[C@H](c3ccccc3)CC2)cc1` has IC50 of < 250 nM

====

system-name: human IDO1 (Homo sapiens, UniProt P14902)
assay-procedure: IDO inhibition assay in HEK293 cells stably expressing human IDO1 (kynurenine, Ehrlich reagent)
condition-details: 20 hours incubation, read-out: HEK Human IDO-1 Bio Activity
pIC50: −log10 of the molar value.
pIC50 values by entry

Field: example entries. Status: answers known.
# molecule, result
records = [
    ("Cc1c(C2CCC(C(C)NC(=O)c3ccc(Cl)cc3)CC2)ccnc1F (single isomer, unassigned) [Example 158e]", "> 5.70"),
    ("CC(NC(=O)c1ccc(Cl)cc1)C1CCC(c2ccncc2F)CC1 (single isomer, unassigned) [Example 161c]", "> 6.60"),
    ("Cc1c(C2CCC(C(C)NC(=O)c3ccc(Cl)cc3)CC2)ccnc1F (single isomer, unassigned) [Example 158b]", "> 7.30"),
]

Please find the next molecule below.
Value (pIC50, human IDO1 (Homo sapiens, UniProt P14902)) for record `N#Cc1ccc(NC(=O)N[C@H]2CC[C@H](c3ccnc4ccc(F)cc43)CC2)cc1` = > 6.60

====

system-name: human IDO1 (Homo sapiens)
Construct: expressed in transfected cells
assay-procedure: IDO inhibition assay in HEK293 cells stably expressing human IDO1 (kynurenine, Ehrlich reagent)
Format: cell-based
condition-details: 20 hours incubation, read-out: HEK Human IDO-1 Bio Activity
quantity-kind: IC50

Example cases with answers are listed next.
# molecule, system-name, IC50
records = [
    ("Cc1nccc(C2CCC(C(C)NC(=O)c3ccc(Cl)cc3)CC2)c1C (single isomer, unassigned) [Example 159d]", "human IDO1 (Homo sapiens)", "< 50 nM"),
    ("Cc1cnccc1C1CCC(C(C)NC(=O)c2ccc(Cl)cc2)CC1 (single isomer, unassigned) [Example 160d]", "human IDO1 (Homo sapiens)", "< 250 nM"),
    ("COc1ccc(-c2ccc(C(=O)N[C@H](C)[C@H]3CC[C@@H](c4ccnc5ccc(F)cc54)CC3)cc2)nc1 [Example 239]", "human IDO1 (Homo sapiens)", "< 50 nM"),
    ("Cc1cnccc1C1CCC(C(C)NC(=O)c2ccc(Cl)cc2)CC1 (single isomer, unassigned) [Example 160c]", "human IDO1 (Homo sapiens)", "< 2000 nM"),
]

Query molecule follows.
Per the record, Cc1c(C2CCC(C(C)NC(=O)c3ccc(Cl)cc3)CC2)ccnc1F (single isomer, unassigned) [Example 158c] has IC50 of < 50 nM
